Test system: Rattus norvegicus
methodDescription: Antiulcerogenic activity in pylorus ligation-induced gastric ulcer Sprague-Dawley rat model assessed as volume of gastric juice at 7.2 mg/kg, po for 3 days (Rvb =5.96 +/-0.80 ml )
Type: functional
Please provide measured Activity for the entries that follow.
Numbers only, in mL.

Hi there! I need Activity for each item below, if you can.
1. COc1ccnc(CNc2ccc3[nH]c(C)nc3c2)c1OC
2. Cc1nc2cc(NCc3ccccn3)ccc2n1C[C@@H](O)[C@H]1O[C@H](O)[C@@H](O)[C@H]1O
3. COc1c(C)cnc(CNc2ccc3c(c2)nc(C)n3C[C@@H](O)[C@H]2O[C@H](O)[C@@H](O)[C@H]2O)c1C
4. COc1ccnc(CNc2ccc3c(c2)nc(C)n3C[C@@H](O)[C@H]2O[C@H](O)[C@@H](O)[C@H]2O)c1OC
5. COc1ccnc(CNc2ccc3c(c2)nc(C)n3C[C@@H](O)[C@H]2O[C@H](O)[C@@H](O)[C@H]2O)c1C

Reply text:
1. 2.6
2. 2.3
3. 2.38
4. 2.39
5. 2.24

###

System: Rattus norvegicus
methodDescription: Antiinflammatory activity against carrageenan-induced paw edema in Sprague-Dawley rat assessed as paw volume at 20 mg/kg, po measured 120 mins post challenge by plethysmometer (reference value: 1.13 +/- 0.04 ml)
Type: functional
experimentalEndpoint: Activity
Write down the value, and be sure its unit follows.

Please review the entries below; each comes with its answer.
                                   compound  experimentalendpoint   result
0  Cc1nc2cc(NCc3ccccn3)ccc2n1C[C@@H](O)[C@H]1O[C@H](O)[C@@H](O)[C@H]1O              Activity  0.69 mL
1       COc1ccnc(CNc2ccc3[nH]c(C)nc3c2)c1OC              Activity  0.69 mL
2  COc1ccnc(CNc2ccc3c(c2)nc(C)n3C[C@@H](O)[C@H]2O[C@H](O)[C@@H](O)[C@H]2O)c1OC              Activity   0.4 mL

Can you give me Activity for all of these, one by one?
1. COc1ccnc(CNc2ccc3[nH]c(C)nc3c2)c1C
2. O=C([O-])Cc1ccccc1Nc1c(Cl)cccc1Cl.[Na+] [DICLOFENAC SODIUM]
3. COc1ccnc(CNc2ccc3c(c2)nc(C)n3C[C@@H](O)[C@H]2O[C@H](O)[C@@H](O)[C@H]2O)c1C
4. COc1c(C)cnc(CNc2ccc3c(c2)nc(C)n3C[C@@H](O)[C@H]2O[C@H](O)[C@@H](O)[C@H]2O)c1C
5. Cc1nc2cc(NCc3ccccn3)ccc2[nH]1
6. COc1c(C)cnc(CNc2ccc3[nH]c(C)nc3c2)c1C

Reply text:
0.69 mL
0.35 mL
0.68 mL
0.48 mL
1.08 mL
0.67 mL

###

Can you tell me Activity for the items I'm about to list?
Test system: Rattus norvegicus
methodDescription: Antiulcerogenic activity in pylorus ligation-induced gastric ulcer Sprague-Dawley rat model assessed as stomach peptic activity measuring tyrosine release for 4 hrs at 7.2 mg/kg, po for 3 days (Rvb =5.70 +/-2.40 ug/ml )
Type: functional
One number for each entry, in µg/mL.

In [3]: df
Out[3]:
                                        mol  experimentalendpoint  measurednumber
0  COc1ccnc(CNc2ccc3c(c2)nc(C)n3C[C@@H](O)[C@H]2O[C@H](O)[C@@H](O)[C@H]2O)c1OC              Activity            4.54
1       COc1ccnc(CNc2ccc3[nH]c(C)nc3c2)c1OC              Activity            4.74

Shift focus to the following entry.
Inquiry: Need Activity of Cc1nc2cc(NCc3ccccn3)ccc2n1C[C@@H](O)[C@H]1O[C@H](O)[C@@H](O)[C@H]1O , thanks.
Reply text: 4.44
